System: gene editing with dCas9
Experiment: Screen of 322 new SSAP proteins, gene editing activity with dCas9 (Table 5)
Assay type: cell-based
Details: normalized
Measurement name: dCas9 with SSAP activity (normalized)
Answer with a number only.

• SSAP_230: SEQ ID NO: 399; Leuconostoc pseudomesenteroides (protein, Leuconostoc pseudomesenteroides) ANEITLAKQLSSDKVVEQFAATAGESAKSFAKEVALTISGNPALQHAKLGTVIVEATKASALGLSLLPTVGEAYLVPYKGDAQFQLGYKGIVQLAMRSGQMKSFGAESVYEGENPKWDKYNQELVTDGEETGKIIGYYAFFTLVNGFKMAAYWPKEKVEAHRDRFSKSKKGPWSTDFDAMAKKTVLKSILQYAPKSSEMKRALAEDTQAEYVQAGIQDVTPEPANIEAPIETANAPEINAQEESLFGELSDVDKETAPNPFAQNLGGDN = −1.164

Proceed to the following item.
Return dCas9 with SSAP activity (normalized) (reported value) for this molecule: SSAP_245: SEQ ID NO: 414; Paenibacillus macquariensis subsp. defensor (protein, listed as Paenibacillus macquariensis) SDKLLVIHKNLENLLDSKREAMPSNFNKTRFLQNCMTVLQDTRDIDKCDATSVARTMLKGAFLGLDFFNKECYAITYAGAVQFQTDYKGEKKLAKKYSVRPVRDIYAKLVKEGDDFKEEVKDGQQTIQFAPKPFNDGEVLGAFAVALFEDGGLVYEVMSKVDIETTRKNYSKQANGQAWTKSPGEMYKKTVLRRLCKNIELDFDTIEQAQAFEDSGDMDLNKEVKPPQVSPLNATVIDAEYTEIREGDPNATNQE
−0.575
